target: human Nav1.7 channels stably expressed in HEK 293 cells (Homo sapiens, UniProt Q15858); construct: expressed in transfected cells; host or cells: HEK 293; assay: IonWorks Quattro automated patch-clamp, inactivated state block; format: cell-based; details: IonWorks technique; read-out: Nav 1.7 potency
Sequence (Q15858 whole entry): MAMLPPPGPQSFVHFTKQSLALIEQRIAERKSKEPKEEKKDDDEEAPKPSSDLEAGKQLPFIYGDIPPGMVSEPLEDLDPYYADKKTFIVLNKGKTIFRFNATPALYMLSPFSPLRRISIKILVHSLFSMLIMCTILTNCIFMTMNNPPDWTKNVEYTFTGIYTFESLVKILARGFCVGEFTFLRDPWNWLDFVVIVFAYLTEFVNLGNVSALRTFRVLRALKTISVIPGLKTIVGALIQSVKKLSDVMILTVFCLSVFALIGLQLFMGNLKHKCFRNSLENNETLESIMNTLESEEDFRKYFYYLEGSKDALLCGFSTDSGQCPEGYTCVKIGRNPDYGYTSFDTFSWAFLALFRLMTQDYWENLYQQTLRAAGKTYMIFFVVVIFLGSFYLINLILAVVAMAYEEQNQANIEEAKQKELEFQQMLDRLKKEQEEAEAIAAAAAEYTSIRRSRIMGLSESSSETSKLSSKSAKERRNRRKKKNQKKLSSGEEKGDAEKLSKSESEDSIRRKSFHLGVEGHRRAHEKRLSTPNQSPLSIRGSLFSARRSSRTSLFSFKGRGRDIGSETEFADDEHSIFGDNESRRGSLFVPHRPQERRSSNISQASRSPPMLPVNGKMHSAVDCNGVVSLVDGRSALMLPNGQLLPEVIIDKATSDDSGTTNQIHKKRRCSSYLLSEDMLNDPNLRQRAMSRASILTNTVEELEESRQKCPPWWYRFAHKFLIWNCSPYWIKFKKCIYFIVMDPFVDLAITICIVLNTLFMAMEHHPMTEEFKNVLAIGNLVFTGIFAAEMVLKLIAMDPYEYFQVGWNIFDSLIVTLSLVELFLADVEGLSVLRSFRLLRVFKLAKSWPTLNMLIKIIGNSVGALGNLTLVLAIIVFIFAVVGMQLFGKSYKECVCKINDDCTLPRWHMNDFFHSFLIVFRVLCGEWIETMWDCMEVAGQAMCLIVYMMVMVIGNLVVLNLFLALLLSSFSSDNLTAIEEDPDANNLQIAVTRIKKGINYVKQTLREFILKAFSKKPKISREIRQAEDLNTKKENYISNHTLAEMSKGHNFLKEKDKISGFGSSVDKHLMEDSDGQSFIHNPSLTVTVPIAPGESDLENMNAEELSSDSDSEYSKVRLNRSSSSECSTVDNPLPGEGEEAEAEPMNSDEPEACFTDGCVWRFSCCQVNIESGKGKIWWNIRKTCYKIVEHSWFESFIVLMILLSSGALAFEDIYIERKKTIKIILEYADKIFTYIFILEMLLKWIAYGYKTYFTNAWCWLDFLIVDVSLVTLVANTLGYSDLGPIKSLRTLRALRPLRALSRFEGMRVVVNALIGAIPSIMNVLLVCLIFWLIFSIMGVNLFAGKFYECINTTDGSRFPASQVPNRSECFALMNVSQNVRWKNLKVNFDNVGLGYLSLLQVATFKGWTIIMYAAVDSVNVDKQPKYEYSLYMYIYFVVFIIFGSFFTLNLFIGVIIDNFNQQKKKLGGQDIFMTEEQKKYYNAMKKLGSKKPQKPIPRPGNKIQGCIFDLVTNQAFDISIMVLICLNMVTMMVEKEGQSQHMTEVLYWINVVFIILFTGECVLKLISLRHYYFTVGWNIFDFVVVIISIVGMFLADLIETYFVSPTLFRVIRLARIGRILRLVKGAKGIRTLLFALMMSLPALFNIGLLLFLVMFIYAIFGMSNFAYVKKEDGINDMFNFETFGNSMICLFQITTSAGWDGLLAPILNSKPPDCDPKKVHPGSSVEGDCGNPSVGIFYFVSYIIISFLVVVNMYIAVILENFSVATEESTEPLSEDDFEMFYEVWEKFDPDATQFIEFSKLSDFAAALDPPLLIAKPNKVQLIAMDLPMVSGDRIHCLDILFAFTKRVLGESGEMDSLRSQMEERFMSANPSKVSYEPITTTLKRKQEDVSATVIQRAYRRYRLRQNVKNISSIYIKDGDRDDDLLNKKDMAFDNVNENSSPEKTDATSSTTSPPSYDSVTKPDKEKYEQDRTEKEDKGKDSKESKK
pIC50: −log10 of the molar value.
quantity.measured: pIC50

(P) O=S(=O)(Nc1ncns1)c1cc2cnn(Cc3ccccc3)c2cc1F
(Q) NC/C=C/c1ccccc1Cn1ncc2cc(S(=O)(=O)Nc3ncns3)ccc21
(R) O=S(=O)(Nc1ncns1)c1ccc2c(cnn2Cc2ccccc2C2=CCNCCC2)c1
(S) NC1CCc2cccc(Cn3ncc4cc(S(=O)(=O)Nc5ncns5)c(F)cc43)c2C1 (single isomer, unassigned) [Ex-14]
Order the entries by their reported pIC50, beginning at the minimum. I would appreciate it if you listed the labels in the requested order. R, P, Q, S

(I) O=S(=O)(Nc1ncns1)c1ccc2c(cnn2Cc2ccccc2)c1
(II) O=S(=O)(Nc1ncns1)c1ccc2c(cnn2Cc2ccc(Cl)cc2-c2cccc3c2CCNC3)c1
Hi, I'm comparing two records. Which one has the lower pIC50, I or II ? Answer by quoting the chosen item's label. II

* * *

Biological target: human Nav1.5 channels stably expressed in HEK 293 cells (Homo sapiens, UniProt Q14524)
Construct: expressed in transfected cells; host or cells: HEK 293
Sequence (Q14524 whole entry): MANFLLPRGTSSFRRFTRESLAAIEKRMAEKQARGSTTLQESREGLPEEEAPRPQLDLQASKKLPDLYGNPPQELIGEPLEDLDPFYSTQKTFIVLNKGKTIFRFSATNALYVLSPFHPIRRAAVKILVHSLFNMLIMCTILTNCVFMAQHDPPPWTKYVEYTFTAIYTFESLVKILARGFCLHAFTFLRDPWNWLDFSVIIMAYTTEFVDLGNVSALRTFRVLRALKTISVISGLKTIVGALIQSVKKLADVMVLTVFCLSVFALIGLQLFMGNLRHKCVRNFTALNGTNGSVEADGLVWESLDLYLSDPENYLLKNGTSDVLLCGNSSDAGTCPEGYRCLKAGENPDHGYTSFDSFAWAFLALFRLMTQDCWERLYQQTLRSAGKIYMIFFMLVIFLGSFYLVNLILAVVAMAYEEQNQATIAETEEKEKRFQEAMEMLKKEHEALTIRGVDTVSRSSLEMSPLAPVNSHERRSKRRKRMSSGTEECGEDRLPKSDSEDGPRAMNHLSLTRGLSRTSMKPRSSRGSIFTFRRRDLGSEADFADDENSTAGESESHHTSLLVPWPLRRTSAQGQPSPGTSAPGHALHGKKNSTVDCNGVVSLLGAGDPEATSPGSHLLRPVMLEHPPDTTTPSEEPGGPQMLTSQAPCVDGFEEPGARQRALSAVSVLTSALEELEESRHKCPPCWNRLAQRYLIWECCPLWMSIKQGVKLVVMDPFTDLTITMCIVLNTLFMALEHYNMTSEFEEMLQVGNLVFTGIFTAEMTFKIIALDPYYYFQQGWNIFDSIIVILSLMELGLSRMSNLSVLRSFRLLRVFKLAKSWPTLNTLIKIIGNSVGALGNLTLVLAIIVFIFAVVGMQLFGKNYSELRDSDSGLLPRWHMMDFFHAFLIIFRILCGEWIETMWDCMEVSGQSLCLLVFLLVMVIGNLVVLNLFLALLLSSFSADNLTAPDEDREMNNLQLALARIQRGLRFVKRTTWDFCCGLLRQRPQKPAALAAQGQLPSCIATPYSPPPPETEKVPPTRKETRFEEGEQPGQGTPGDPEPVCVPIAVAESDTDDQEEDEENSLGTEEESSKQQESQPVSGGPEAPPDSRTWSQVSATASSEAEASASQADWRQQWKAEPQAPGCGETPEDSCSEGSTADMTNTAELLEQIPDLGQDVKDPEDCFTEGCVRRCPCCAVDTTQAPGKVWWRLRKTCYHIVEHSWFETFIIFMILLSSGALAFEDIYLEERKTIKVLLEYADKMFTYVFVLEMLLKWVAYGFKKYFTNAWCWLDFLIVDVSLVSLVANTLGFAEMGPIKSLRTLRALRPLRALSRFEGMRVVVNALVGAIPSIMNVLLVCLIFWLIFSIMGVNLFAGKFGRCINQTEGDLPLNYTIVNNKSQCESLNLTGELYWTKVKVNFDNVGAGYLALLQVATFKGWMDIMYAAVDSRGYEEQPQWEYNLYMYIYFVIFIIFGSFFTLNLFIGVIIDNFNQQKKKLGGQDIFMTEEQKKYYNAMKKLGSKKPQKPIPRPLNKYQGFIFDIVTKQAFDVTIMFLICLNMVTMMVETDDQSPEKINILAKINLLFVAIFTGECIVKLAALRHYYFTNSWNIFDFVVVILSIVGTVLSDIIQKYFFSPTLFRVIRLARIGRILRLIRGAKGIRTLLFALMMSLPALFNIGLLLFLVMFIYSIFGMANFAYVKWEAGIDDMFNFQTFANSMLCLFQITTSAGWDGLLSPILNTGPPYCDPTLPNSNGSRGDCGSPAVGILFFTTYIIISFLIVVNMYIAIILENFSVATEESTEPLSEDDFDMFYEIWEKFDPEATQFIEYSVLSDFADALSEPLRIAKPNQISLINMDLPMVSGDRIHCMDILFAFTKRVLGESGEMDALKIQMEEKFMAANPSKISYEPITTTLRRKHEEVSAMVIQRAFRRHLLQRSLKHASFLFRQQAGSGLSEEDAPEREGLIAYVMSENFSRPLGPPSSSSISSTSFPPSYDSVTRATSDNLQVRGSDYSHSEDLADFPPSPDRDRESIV
Assay: PatchXpress 7000 automated patch-clamp, inactivated state block
Format: cell-based
Details: PatchXpress technique
Method: For all electrophysiology experiments, offline analysis was used to correct for current rundown and to determine percent inhibition as a function of drug concentration. IC50 values were determined by fitting to the Hill equation. Sodium Current Measurements on the PatchXpress 7000®: […]
quantity.measured: Ratio 1.5:1.7 = Nav 1.5 potency (nM)/Nav1.7 potency (nM)
Please respond with just the number, no unit label.

Use the examples below as a reference point.
- molecule: "O=S(=O)(Nc1ncns1)c1ccc2c(cnn2Cc2ccccc2)c1 [Ex-19]"
  val: 6
- molecule: "O=S(=O)(Nc1nccs1)c1cc2cnn(Cc3cccc4c3CNCC4)c2cc1F [Ex-2]"
  val: 2025

Lab note: molecule NC1CCc2cccc(Cn3ncc4cc(S(=O)(=O)Nc5nccs5)c(F)cc43)c2C1 (single isomer, unassigned) [Ex-26] tested on human Nav1.5 channels stably expressed in HEK 293 cells (Homo sapiens, UniProt Q14524); recorded Ratio 1.5:1.7 = Nav 1.5 potency (nM)/Nav1.7 potency (nM) was 3231

Lab note: molecule NC1CCc2cccc(Cn3ncc4cc(S(=O)(=O)Nc5cccc(F)n5)c(F)cc43)c2C1 (single isomer, unassigned) [Ex-31] tested on human Nav1.5 channels stably expressed in HEK 293 cells (Homo sapiens, UniProt Q14524); recorded Ratio 1.5:1.7 = Nav 1.5 potency (nM)/Nav1.7 potency (nM) was 772

Lab note: molecule O=S(=O)(Nc1cccc(F)n1)c1cc2cnn(Cc3cccc4c3CNCC4F)c2cc1F (stereo not drawn) [Ex-49] tested on human Nav1.5 channels stably expressed in HEK 293 cells (Homo sapiens, UniProt Q14524); recorded Ratio 1.5:1.7 = Nav 1.5 potency (nM)/Nav1.7 potency (nM) was 45

Lab note: molecule O=S(=O)(Nc1cccc(F)n1)c1cc2cnn(Cc3cccc4c3CNC4)c2cc1F [Ex-42] tested on human Nav1.5 channels stably expressed in HEK 293 cells (Homo sapiens, UniProt Q14524); recorded Ratio 1.5:1.7 = Nav 1.5 potency (nM)/Nav1.7 potency (nM) was 36

Lab note: molecule NC1CCc2cccc(Cn3ncc4cc(S(=O)(=O)Nc5ncns5)c(F)cc43)c2C1 (single isomer, unassigned) [Ex-13] tested on human Nav1.5 channels stably expressed in HEK 293 cells (Homo sapiens, UniProt Q14524); recorded Ratio 1.5:1.7 = Nav 1.5 potency (nM)/Nav1.7 potency (nM) was 2275

Lab note: molecule NCc1ccccc1Cn1ncc2cc(S(=O)(=O)Nc3cccc(F)n3)c(F)cc21 [Ex-35] tested on human Nav1.5 channels stably expressed in HEK 293 cells (Homo sapiens, UniProt Q14524); recorded Ratio 1.5:1.7 = Nav 1.5 potency (nM)/Nav1.7 potency (nM) was 53

Lab note: molecule C[C@H](c1cccc2c1CNCC2)n1ncc2cc(S(=O)(=O)Nc3ncns3)c(F)cc21 [Ex-6] tested on human Nav1.5 channels stably expressed in HEK 293 cells (Homo sapiens, UniProt Q14524); recorded Ratio 1.5:1.7 = Nav 1.5 potency (nM)/Nav1.7 potency (nM) was 320

Lab note: molecule C[C@@H](c1cccc2c1CNCC2)n1ncc2cc(S(=O)(=O)Nc3ncns3)c(F)cc21 [Ex-64] tested on human Nav1.5 channels stably expressed in HEK 293 cells (Homo sapiens, UniProt Q14524); recorded Ratio 1.5:1.7 = Nav 1.5 potency (nM)/Nav1.7 potency (nM) was 36

Lab note: molecule CC(C)(N)CC#Cc1ccccc1Cn1ncc2cc(S(=O)(=O)Nc3cccc(F)n3)c(F)cc21 [Ex-45] tested on human Nav1.5 channels stably expressed in HEK 293 cells (Homo sapiens, UniProt Q14524); recorded Ratio 1.5:1.7 = Nav 1.5 potency (nM)/Nav1.7 potency (nM) was 18

Lab note: molecule NC1Cc2cccc(Cn3ncc4cc(S(=O)(=O)Nc5cccc(F)n5)c(F)cc43)c2C1 (stereo not drawn) [Ex-39] tested on human Nav1.5 channels stably expressed in HEK 293 cells (Homo sapiens, UniProt Q14524); recorded Ratio 1.5:1.7 = Nav 1.5 potency (nM)/Nav1.7 potency (nM) was 129

Lab note: molecule NC/C=C/c1cc(Cl)ccc1Cn1ncc2cc(S(=O)(=O)Nc3ncns3)ccc21 [Ex-16] tested on human Nav1.5 channels stably expressed in HEK 293 cells (Homo sapiens, UniProt Q14524); recorded Ratio 1.5:1.7 = Nav 1.5 potency (nM)/Nav1.7 potency (nM) was 32

Lab note: molecule NC/C=C/c1ccccc1Cn1ncc2cc(S(=O)(=O)Nc3ncns3)ccc21 [Ex-15] tested on human Nav1.5 channels stably expressed in HEK 293 cells (Homo sapiens, UniProt Q14524); recorded Ratio 1.5:1.7 = Nav 1.5 potency (nM)/Nav1.7 potency (nM) was 237

* * *

target: human Nav1.7 channels stably expressed in HEK 293 cells (Homo sapiens, UniProt Q15858); construct: expressed in transfected cells; host or cells: HEK 293; assay: PatchXpress 7000 automated patch-clamp, inactivated state block; format: cell-based; settings: PatchXpress technique; read-out: Nav 1.7 potency
quantity.measured: IC50 (nM)

Use the examples below as a reference point.
- compound: "O=S(=O)(Nc1ncns1)c1ccc2c(cnn2Cc2ccccc2)c1"
  scale.unit: "nM"
  val: 3030
- compound: "NC1Cc2cccc(Cn3ncc4cc(S(=O)(=O)Nc5cccc(F)n5)c(F)cc43)c2C1 (stereo not shown)"
  scale.unit: "nM"
  val: 232
- compound: "O=S(=O)(Nc1nccs1)c1cc2cnn(Cc3ccccc3C3=CCNCC3)c2cc1F"
  scale.unit: "nM"
  val: 82
- compound: "NCC#Cc1ccccc1Cn1ncc2cc(S(=O)(=O)Nc3nccs3)c(F)cc21"
  scale.unit: "nM"
  val: 89

(I) C[C@H](c1ccccc1C#CCN)n1ncc2cc(S(=O)(=O)Nc3ncc(Cl)s3)c(F)cc21
(II) NCc1ccccc1Cn1ncc2cc(S(=O)(=O)Nc3cccc(F)n3)c(F)cc21
Hi, I'm comparing two records. Which one has the lower IC50, I or II ? Answer by quoting the chosen item's label. I

(I) O=S(=O)(Nc1ncns1)c1ccc2c(cnn2Cc2ccc(Cl)cc2C2=CCNCCC2)c1
(II) NCCCc1ccccc1Cn1ncc2cc(S(=O)(=O)Nc3nccs3)c(F)cc21
(III) C[C@H](c1ccccc1C#C[C@@H]1CCCC[C@@H]1N)n1ncc2cc(S(=O)(=O)Nc3cccc(F)n3)c(F)cc21
(IV) O=S(=O)(Nc1nccs1)c1cc2cnn(Cc3cccc4c3CNCC4)c2cc1F
(V) C[C@H](c1cccc2c1CNCC2)n1cc2cc(S(=O)(=O)Nc3ncc(Cl)s3)c(F)cc2n1
Sort the compounds on IC50; start with the lowest figure. I would appreciate it if you listed the labels in the requested order. II, IV, V, III, I
(II: 5 nM, IV: 20 nM, V: 111 nM, III: 546 nM, I: 4470 nM)

(1) O=S(=O)(Nc1ncns1)c1cc2cnn(Cc3cccc4c3CNCC4)c2cc1F
(2) Cc1cc2c(cnn2[C@H](C)c2cccc3c2CNCC3)cc1S(=O)(=O)Nc1cccc(F)n1
Hi, I'm comparing two records. Which one has the lower IC50, 1 or 2 ? Answer by quoting the chosen item's label. 2

(P) O=S(=O)(Nc1ncc(Cl)s1)c1cc2cnn(Cc3cccc4c3CNCC4)c2cc1F
(Q) NC1CCc2cccc(Cn3ncc4cc(S(=O)(=O)Nc5ncc(Cl)s5)c(F)cc43)c2C1 (stereo not shown)
(R) C[C@H](c1cccc2c1CNCC2)n1ncc2cc(S(=O)(=O)Nc3ncns3)c(F)cc21
Sort the compounds on IC50; start with the lowest figure. I would appreciate it if you listed the labels in the requested order. Q, P, R
